# SUBJECT OF TEST: SIRT1 (Homo sapiens)
# ASSAY NAME: Mass spectrometry based SIRT1 deacetylase activation assay
# Type: biochemical
# CONDITION NOTES: 0.5 μM peptide substrate, 120 μM βNAD+, 10 nM SIRT1, 25 min, 25° C.
QUANTITY MEASURED: EC1.5 μM

A selection of reference data follows.
O=C(Nc1cccc2c(=O)cc(-c3ccccc3C(F)F)oc12)c1cnccn1 [Compound 282]
A (EC1-5<1.0)
O=C(Nc1cccc2c(=O)cc(-c3ccccc3Cl)oc12)c1cccc(CN2CCCC2)c1 [Compound 333]
B (EC1.5 1-25 μM)
O=C(Nc1cccc2c(=O)cc(-c3ccccc3OC(F)F)oc12)c1cnccn1 [Compound 263]
C (EC1.5>25 μM)
CS(=O)(=O)c1ccccc1-c1cc(=O)c2cccc(NC(=O)c3cscn3)c2o1 [Compound 266]
B (EC1.5 1-25 μM)
O=C(Nc1cccc2c(=O)cc(-c3cc(F)ccc3Cl)oc12)c1cnccn1 [Compound 300]
C (EC1.5>25 μM)

Required: EC1.5 μM, one value per compound below.
1. O=C(Nc1cccc2c(=O)cc(-c3cccc(F)c3F)oc12)c1cscn1 [Compound 289]
2. Cc1cnc(NC(=O)c2cccc3c(=O)cc(-c4ccccc4C(F)(F)F)oc23)s1 [Compound 276]
3. O=C(Nc1cccc2c(=O)cc(-c3ccccc3OC(F)(F)F)oc12)c1cnccn1 [Compound 234]

Result:
1. C (EC1.5>25 μM)
2. C (EC1.5>25 μM)
3. A (EC1-5<1.0)

---

# SUBJECT OF TEST: UniProt Q96EB6
# ASSAY NAME: Mass spectrometry based SIRT1 deacetylase activation assay
# Assay type: biochemical
# CONDITION NOTES: 0.5 μM peptide substrate, 120 μM βNAD+, 10 nM SIRT1, 25 min, 25° C.
QUANTITY MEASURED: EC1.5 μM

A selection of reference data follows.
O=C(Nc1cccc2c(=O)cc(-c3cccc(C(F)(F)F)c3)oc12)c1ccnc(OC[C@@H](O)CO)c1
C (EC1.5>25 μM)
Cc1cnc(NC(=O)c2cccc3c(=O)cc(-c4cccnc4)oc23)s1
C (EC1.5>25 μM)
O=C(Nc1cccc2c(=O)cc(-c3cccnc3)oc12)c1ccccn1
C (EC1.5>25 μM)
O=C(Nc1cccc2c(=O)cc(-c3ccccc3C(F)(F)F)oc12)c1ccncn1
A (EC1-5<1.0)
CC(C)c1ccccc1-c1cc(=O)c2cccc(NC(=O)c3cnccn3)c2o1
A (EC1-5<1.0)
Cc1cnc(NC(=O)c2cccc3c(=O)cc(-c4ccccc4OC(F)(F)F)oc23)s1
C (EC1.5>25 μM)

Required: EC1.5 μM, one value per compound below.
1. O=C(Nc1cccc2c(=O)cc(-c3ccccc3C(F)(F)F)oc12)c1cccc(N2CCOCC2)c1
2. Cc1cnc(NC(=O)c2cccc3c(=O)cc(-c4ccccc4C(C)C)oc23)s1
3. O=C(Nc1cccc2c(=O)cc(-c3ccccc3Cl)oc12)c1cccc(N2CCOCC2)n1
4. O=C(Nc1cccc2c(=O)cc(-c3cccnc3C(F)(F)F)oc12)c1cnccn1

Result:
["B (EC1.5 1-25 μM)", "C (EC1.5>25 μM)", "A (EC1-5<1.0)", "B (EC1.5 1-25 μM)"]

Required: EC1.5 μM, one value per compound below.
1. CS(=O)(=O)c1ccccc1-c1cc(=O)c2cccc(NC(=O)c3cnccn3)c2o1
2. O=C(Nc1cccc2c(=O)cc(-c3ccccc3N3CCOCC3)oc12)c1cscn1
3. O=C(Nc1cccc2c(=O)cc(-c3ccccc3Cl)oc12)c1ncccn1
4. Cc1cnc(NC(=O)c2cccc3c(=O)cc(-c4ccccc4F)oc23)s1
5. O=C(Nc1cccc2c(=O)cc(-c3ccccc3Cl)oc12)c1cccc(N2CCCC2)n1
6. O=C(Nc1cccc2c(=O)cc(-c3c(F)cccc3Cl)oc12)c1cscn1
7. O=C(Nc1cccc2c(=O)cc(-c3ccccc3C(F)(F)F)oc12)c1cncs1

Result:
C (EC1.5>25 μM)
B (EC1.5 1-25 μM)
A (EC1-5<1.0)
C (EC1.5>25 μM)
A (EC1-5<1.0)
B (EC1.5 1-25 μM)
B (EC1.5 1-25 μM)

Required: EC1.5 μM, one value per compound below.
1. O=C(Nc1cccc2c(=O)cc(-c3cccc(N4CCOCC4)c3)oc12)c1cscn1
2. O=C(Nc1cccc2c(=O)cc(-c3cccc(OC(F)(F)F)c3)oc12)c1cscn1
3. O=C(Nc1cccc2c(=O)cc(-c3cccc(C(F)(F)F)c3)oc12)c1cccnc1OC[C@@H](O)CO
4. O=C(Nc1cccc2c(=O)cc(-c3c(Cl)cccc3Cl)oc12)c1cscn1
5. CS(=O)(=O)c1cccc(-c2cc(=O)c3cccc(NC(=O)c4cnccn4)c3o2)c1
6. O=C(Nc1cccc2c(=O)cc(-c3ccccc3C(F)(F)F)oc12)c1cccc(N2CCCC2)n1
7. O=C(Nc1cccc2c(=O)cc(-c3ccccc3C(F)F)oc12)c1cccc(OCC(O)CO)n1 (stereo not drawn)

Result:
B (EC1.5 1-25 μM)
C (EC1.5>25 μM)
B (EC1.5 1-25 μM)
B (EC1.5 1-25 μM)
C (EC1.5>25 μM)
A (EC1-5<1.0)
A (EC1-5<1.0)

Required: EC1.5 μM, one value per compound below.
1. COc1ccccc1-c1cc(=O)c2cccc(NC(=O)c3cscn3)c2o1
2. O=C(Nc1cccc2c(=O)cc(-c3cccc(C(F)(F)F)c3)oc12)c1cccc(OC[C@@H](O)CO)n1
3. O=C(Nc1cccc2c(=O)cc(-c3ccccc3C(F)(F)F)oc12)c1cccc(CN2CCOCC2)c1
4. Cn1nccc1C(=O)Nc1cccc2c(=O)cc(-c3ccccc3Cl)oc12
5. CS(=O)(=O)c1cccc(-c2cc(=O)c3cccc(NC(=O)c4cscn4)c3o2)c1
6. CS(=O)(=O)c1cccc(-c2cc(=O)c3cccc(NC(=O)c4ccccn4)c3o2)c1
7. O=C(Nc1cccc2c(=O)cc(-c3cccc(OC(F)(F)F)c3)oc12)c1cnccn1

Result:
["C (EC1.5>25 μM)", "B (EC1.5 1-25 μM)", "B (EC1.5 1-25 μM)", "A (EC1-5<1.0)", "C (EC1.5>25 μM)", "B (EC1.5 1-25 μM)", "B (EC1.5 1-25 μM)"]

Required: EC1.5 μM, one value per compound below.
1. CS(=O)(=O)c1cccc(-c2cc(=O)c3cccc(C(=O)Nc4ccccn4)c3o2)c1
2. O=C(Nc1cccc2c(=O)cc(-c3ccccc3)oc12)c1cscn1

Result:
C (EC1.5>25 μM)
C (EC1.5>25 μM)

---

# SUBJECT OF TEST: SIRT1 (Homo sapiens, UniProt Q96EB6)
# Sequence (Q96EB6 whole entry): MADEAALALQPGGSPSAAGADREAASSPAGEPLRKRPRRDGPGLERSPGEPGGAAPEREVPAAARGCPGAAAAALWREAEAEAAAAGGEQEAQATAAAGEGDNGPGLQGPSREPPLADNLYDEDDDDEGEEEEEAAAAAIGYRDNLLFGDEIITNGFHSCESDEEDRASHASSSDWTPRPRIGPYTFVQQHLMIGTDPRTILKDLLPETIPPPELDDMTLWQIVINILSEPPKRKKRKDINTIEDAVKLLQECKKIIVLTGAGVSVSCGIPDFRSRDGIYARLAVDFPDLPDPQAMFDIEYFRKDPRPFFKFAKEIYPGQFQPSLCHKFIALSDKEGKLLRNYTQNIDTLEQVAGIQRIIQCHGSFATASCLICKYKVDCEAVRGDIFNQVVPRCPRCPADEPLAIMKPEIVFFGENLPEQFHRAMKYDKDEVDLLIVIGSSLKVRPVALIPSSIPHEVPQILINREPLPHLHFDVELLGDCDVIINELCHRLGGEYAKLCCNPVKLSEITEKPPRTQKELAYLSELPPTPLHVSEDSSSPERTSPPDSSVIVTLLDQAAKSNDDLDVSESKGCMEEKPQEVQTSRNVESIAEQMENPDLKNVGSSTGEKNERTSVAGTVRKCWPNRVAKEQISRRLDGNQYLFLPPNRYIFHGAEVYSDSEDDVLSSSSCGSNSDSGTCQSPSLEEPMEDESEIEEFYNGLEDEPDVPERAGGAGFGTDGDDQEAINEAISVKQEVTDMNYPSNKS
# ASSAY NAME: Mass spectrometry based SIRT1 deacetylase activation assay
# Type: biochemical
# CONDITION NOTES: 0.5 μM peptide substrate, 120 μM βNAD+, 10 nM SIRT1, 25 min, 25° C.
QUANTITY MEASURED: EC1.5 μM

O=C(Nc1cccc2c(=O)cc(-c3ccccc3F)oc12)c1cscn1
C (EC1.5>25 μM)
Cc1cnc(NC(=O)c2cccc3c(=O)cc(-c4ccncc4)oc23)s1
C (EC1.5>25 μM)
O=C(Nc1nccs1)c1cccc2c(=O)cc(-c3cccc(N4CCOCC4)c3)oc12
C (EC1.5>25 μM)
O=C(Nc1cccc2c(=O)cc(-c3ccccc3C(F)(F)F)oc12)c1ccncc1
B (EC1.5 1-25 μM)

Required: EC1.5 μM, one value per compound below.
1. O=C(Nc1cccc2c(=O)cc(-c3ccccc3Cl)oc12)c1cnccn1
2. O=C(Nc1cccc2c(=O)cc(-c3ccccc3)oc12)c1cnccn1
3. O=C(Nc1cccc2c(=O)cc(-c3c(F)cccc3F)oc12)c1cscn1
4. O=C(Nc1cccc2c(=O)cc(-c3cccc(C(F)(F)F)c3)oc12)c1cccnc1
5. CS(=O)(=O)c1cccc(-c2cc(=O)c3cccc(NC(=O)c4cccnc4)c3o2)c1
6. O=C(Nc1cccc2c(=O)cc(-c3cccc(N4CCOCC4)c3)oc12)c1ccccn1

Result:
1. A (EC1-5<1.0)
2. C (EC1.5>25 μM)
3. B (EC1.5 1-25 μM)
4. C (EC1.5>25 μM)
5. C (EC1.5>25 μM)
6. C (EC1.5>25 μM)

---

# SUBJECT OF TEST: SIRT1 (Homo sapiens, UniProt Q96EB6)
# ASSAY NAME: Mass spectrometry based SIRT1 deacetylase activation assay
# Format: biochemical
# CONDITION NOTES: 0.5 μM peptide substrate, 120 μM βNAD+, 10 nM SIRT1, 25 min, 25° C.
QUANTITY MEASURED: EC1.5 μM

A selection of reference data follows.
O=C(Nc1cccc2c(=O)cc(-c3cccnc3)oc12)c1cscn1
C (EC1.5>25 μM)
O=C(Nc1cccc2c(=O)cc(-c3ccccc3C(F)(F)F)oc12)c1ncccn1
A (EC1-5<1.0)
O=C(Nc1cccc2c(=O)cc(-c3ccccc3C(F)(F)F)oc12)c1cccc(CN2CCOCC2)n1
A (EC1-5<1.0)
O=C(Nc1cccc2c(=O)cc(-c3ccccc3C(F)(F)F)oc12)c1cncc(N2CCOCC2)n1
A (EC1-5<1.0)
Cc1ccccc1-c1cc(=O)c2cccc(NC(=O)c3cscn3)c2o1
C (EC1.5>25 μM)
Cc1cnc(NC(=O)c2cccc3c(=O)cc(-c4cccc(C(F)(F)F)c4)oc23)s1
C (EC1.5>25 μM)

Proceed to the following item.
With SIRT1 (Homo sapiens, UniProt Q96EB6) as the test system, `COc1ccccc1-c1cc(=O)c2cccc(NC(=O)c3cnccn3)c2o1` showed EC1.5 μM of C (EC1.5>25 μM)
